# measured.on: T1, 4H3057-bN
# T1 chain: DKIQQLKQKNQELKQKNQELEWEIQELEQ
# method: two-hybrid library CCNG1;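 further: natural log of median RNA to DNA barcode read ratio; higher means stronger binding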
quantity.kind: interaction score

Past entries and their recorded results:
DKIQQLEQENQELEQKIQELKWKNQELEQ [4H2223-bN]
-0.362
DKIQQLKQEIQELEQENQELKWENQELKQ [4H2588-bN]
-1.34
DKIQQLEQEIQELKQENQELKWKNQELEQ [4H2143-bN]
-0.303
DKIQQLKQKIQELKQKIQELEWENQELEQ [4H2915-bN]
-0.568

I = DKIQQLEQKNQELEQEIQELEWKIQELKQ [4H2438-bN]
II = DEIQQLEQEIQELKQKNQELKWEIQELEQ [4H121-bN]
# argmax over interaction score for candidates I and II In your reply, give the label of the chosen option.
I
